# Tested on: OVCAR-3
# ASSAY: NCI tumour cell line growth inhibition, 48 h
Activity calls are given as the source filed them. Cut-off read from the data, not from the text of the source: active = GI50 up to about 1.1 µM and inactive = higher.
Thanks in advance; please answer with one of these: active, inactive

[in] Outcome? `c1cc(-c2ccsc2-c2ccsc2)cs1`
[out] inactive

[in] Note, next up: `Cn1cc2ccccc2c1-c1nc(N)nc(F)n1`
[out] inactive

[in] Note, next up: `COc1cccc(-c2c(-c3ccccc3)[nH]c(C)c2C(=O)ONC(=O)c2ccccc2)c1`
[out] inactive

[in] Note, next up: `COc1ccc(OC)c2sc(N3C(=O)/C(=C/c4cccc(Oc5ccccc5)c4)N=C3c3ccccc3)nc12`
[out] inactive

[in] Note, next up: `O=C(Nc1nc2ccccc2s1)c1cc([N+](=O)[O-])ccc1Cl`
[out] inactive

[in] Note, next up: COc1cc([C@@H]2c3[nH]c4ccccc4c3C(Nc3ccc([N+](=O)[O-])cc3)[C@H]3COC(=O)N23)cc(OC)c1O (stereo partly specified)
[out] active

[in] Note, next up: `CSc1nsc(-c2ccccc2)[s+]1.[O-][Cl+3]([O-])([O-])[O-]`
[out] inactive

[in] Note, next up: CC(C)(C)c1cc(C(O)(C(F)(F)F)C(F)(F)F)c2c(c1)C(C(F)(F)F)(C(F)(F)F)OC(c1ccccc1)(C(C)(C)C)N2 (stereo unspecified)
[out] active

[in] Note, next up: `CCOC(=O)NC(=O)c1cn(CCCOC(=O)CCCCCCCCC(=O)OCCCn2cc(C(=O)NC(=O)OCC)c(=O)n(C)c2=O)c(=O)n(C)c1=O`
[out] inactive

[in] Note, next up: `COc1cccc(/C=C2\SC(=S)N(/C=C3\C(=O)Oc4ccccc4C3=O)C2=O)c1O`
[out] inactive

[in] Note, next up: `COC(=O)C(I(OS(=O)(=O)c1ccc(C)cc1)c1ccccc1)=P(c1ccccc1)(c1ccccc1)c1ccccc1`
[out] inactive

[in] Note, next up: `COP(=O)(/C=C/c1cc(C(=O)OCc2ccccc2)n(S(=O)(=O)c2ccccc2)c1)OC`
[out] inactive

[in] Note, next up: `CCc1nc(N)nc(N)c1-c1ccc2c(c1)nnn2CCc1ccccc1`
[out] inactive

[in] Note, next up: `CC(C)Oc1cccc(N2C(Nc3ccccc3)=Nc3ccncc3S2(=O)=O)c1`
[out] inactive

[in] Note, next up: COc1ccc(/C(C#N)=C2/O/C(=N/N)C(c3ccc(OC)c(OC)c3)C2=O)cc1OC (stereo unspecified)
[out] inactive

[in] Note, next up: `CC(C)(CN1CCOCC1)C(=O)/C=C/c1ccc(/C=C/C(=O)C(C)(C)CN2CCOCC2)cc1`
[out] active

[in] Note, next up: `CCOCN/C(N)=N\C#N`
[out] inactive

[in] Note, next up: `COc1cc2nc(-c3ccc4ccccc4c3)nc(O)c2cc1OC`
[out] inactive

[in] Note, next up: `O=C(O)CCNc1ccccc1C(=O)O`
[out] inactive

[in] Note, next up: O=C(C[C@H](NC(=O)OCc1ccccc1)C(=O)NC1Cc2ccccc2OC1=O)OCc1ccccc1 (stereo partly specified)
[out] inactive

[in] Note, next up: CN(c1cn(C2CC[C@@H](CO)O2)c(=O)[nH]c1=O)C1CCCCC1 (stereo partly specified)
[out] inactive

[in] Note, next up: `O=C(O)c1ccc2c(O)c(O)ccc2c1`
[out] inactive

[in] Note, next up: `COC(=O)CCc1cc(OC)c2c(c1)[C@H](C(=O)OC)[C@@H](c1ccc(O)c(OC)c1)O2`
[out] inactive

[in] Note, next up: COC1OC2=CCC3C(=O)NC(=O)C3C2[C@H](OCc2ccccc2)C1OCc1ccccc1 (stereo partly specified)
[out] inactive

[in] Note, next up: N#CC1=C(N)Oc2c(ccc3cccnc23)C1c1ccccc1 (stereo unspecified)
[out] active

[in] Note, next up: COc1cccc2c1[C@]1(O)C(O)CCCC21 (stereo partly specified)
[out] inactive

[in] Note, next up: CN(C)CCNC(=O)c1cccc2c(NC(CCC(N)=O)C(=O)O)c3ccccc3nc12 (stereo unspecified)
[out] inactive

[in] Note, next up: `CC(=O)Nc1oc(C)c(C)c1S(=O)(=O)c1ccc(Cl)cc1`
[out] inactive

[in] Note, next up: `CC(=O)Nc1nc(Cl)cc(NCC2(CO)CCC2)n1`
[out] inactive

[in] Note, next up: `CC1=C(O)C(=O)c2ccccc2C1=O`
[out] inactive

[in] Note, next up: CC(=O)OC1CCC2(C)C(=CCC3C4CCC5(OC6CC(C)CN(C(C)=O)C6C5C)C(C)=C4C(=O)C32)C1 (stereo unspecified)
[out] inactive

[in] Note, next up: `CCOC(=O)NC(C(F)(F)F)(C(F)(F)F)P(=O)(OCC(C)C)OCC(C)C`
[out] inactive

[in] Note, next up: `CN1CCN(C)C1c1cccc(C2N(C)CCN2C)c1`
[out] inactive

[in] Note, next up: `CC(=O)O/C=C\OC1CCCC1`
[out] inactive

[in] Note, next up: `CC1=NNC(=S)NCCCN2CCN(CCCNC(=S)NN=C(C)C=NNC(=S)NCCCN3CCN(CCCNC(=S)NN=C1)CC3)CC2`
[out] inactive

[in] Note, next up: `N=C(NNS(=O)(=O)c1ccccc1)Oc1ccc(Br)cc1Br`
[out] inactive

[in] Note, next up: COC(=O)/C=C/COCC1C2CCC(=O)C21 (stereo unspecified)
[out] inactive

[in] Note, next up: `O=C(Cn1c(C(=O)/C=C/c2ccc(Cl)cc2)nc2ccccc21)c1ccc(Cl)cc1`
[out] inactive

[in] Note, next up: `CCCCCCCCCCCCCP(=O)(O)NCC(N)=O`
[out] inactive

[in] Note, next up: COC(=O)C1C(O)C(C)C(O)C(C)/C=C\C=C(C)C(=O)Nc2c(C)c(OC(C)=O)c3c(c2O)C(=O)C(C)=C2OCOC(=C23)C(C)=CC(C)(O)C(O)C(C)C1O (stereo unspecified)
[out] inactive

[in] Note, next up: `Cc1nc2nnc(C)n2c2c1C(=O)Nc1ccccc1N2`
[out] inactive

Hey, just so you know, these numbers are from ChEMBL document CHEMBL1201862.
